- Test system: NCI-H460 cells
- procedure.summary: Proliferation assay, crystal violet staining
- condition.set: Homo sapiens, NCI-H460, 96 h, read-out: Inhibition of NCI-H460 cell proliferation, NCI-H460 cells, 4 days incubation
result.type: IC50 (nM)

// solved cases for IC50 follow
CS(=O)(=O)c1ccc(-c2cc(N3CCOCC3)nc3c(-c4ccn[nH]4)nccc23)c(F)c1
378
Cc1nc(S(C)(=O)=O)ccc1-c1cc(N2CCOC[C@H]2C)nc2c(-c3ccn[nH]3)nccc12
59
C[C@@H]1COCCN1c1cc(-c2cccc(S(C)(=N)=O)c2)c2ccnc(-c3ccn[nH]3)c2n1 (some centres unmarked)
685
COc1ncccc1-c1cc(N2CCOC[C@H]2C)nc2c(-c3ccn[nH]3)nccc12
303

1. Cn1nccc1-c1cc(N2CCOCC2)nc2c(-c3ccn[nH]3)nccc12
2. C[C@@H]1COCCN1c1cc(C2CC2)c2ccnc(-c3cc[nH]n3)c2n1
Enquiry: Returns: the argument ( 1 or 2 ) having the larger IC50. Mark your selection by writing its label.
Return: 1
